Please provide measured GI50 for the entries that follow.
System: Hs-578T
Test: NCI tumour cell line growth inhibition, 48 h
The source made the active and inactive calls. No stated cut-off is given here; in the data, active = GI50 up to about 1.1 µM and inactive = higher.

According to the records, this compound CCc1cccc(C(C)(C)C)c1NC(=S)N/C=C(/C#N)C(N)=O displays GI50 of 83 µM (inactive)

According to the records, this compound OCc1ccc2c(c1)CC1(C2)Cc2cc3c(cc2C1)CCC3 displays GI50 of 4.02 µM (inactive)

According to the records, this compound O=C1C=CC(=O)c2c1ccc1c3ccccc3n(CCCCCCCCCCCCn3c4ccccc4c4ccc5c(c43)C(=O)C=CC5=O)c21 displays GI50 of > 100 µM (inactive)

According to the records, this compound CCCCCCCCCCC(O)C1CCC(C2CCC(C(O)CCCCC(O)CCCCCC(O)CC3=CC(C)OC3=O)O2)O1 (stereo unspecified) displays GI50 of 4.75 µM (inactive)

According to the records, this compound NC(CC1=CCC=CC1)C(=O)O (stereo unspecified) displays GI50 of 50.6 µM (inactive)

According to the records, this compound COC1(OC)CCCc2c1no[n+]2[O-] displays GI50 of > 100 µM (inactive)

According to the records, this compound COc1ccc2[nH]c3cc4c(=O)c5cc(OC)ccc5[nH]c4cc3c(=O)c2c1 displays GI50 of > 100 µM (inactive)

According to the records, this compound CSCCCNC(=O)c1csc(-c2csc(CCNC(=O)CNC(=O)OC(C)(C)C)n2)n1 displays GI50 of > 100 µM (inactive)

According to the records, this compound Cc1cccc(C(O)c2ccncc2)c1O (stereo unspecified) displays GI50 of > 100 µM (inactive)

According to the records, this compound CN1CC[C@@]2(c3cccc(O)c3)CC(=O)/C(=C/c3ccc(Cl)c(Cl)c3)[C@H]1C2 displays GI50 of 2.51 µM (inactive)

According to the records, this compound CCOC(=O)c1ccc(NC(=O)Oc2ccc3c(C)cc(=O)oc3c2)cc1 displays GI50 of 29.6 µM (inactive)

According to the records, this compound Cc1cc2c(cc1-c1cc3c(cc1C)C(C(C)C)=C(O)C(=O)/C3=C\Nc1c(C)n(C)n(-c3ccccc3)c1=O)/C(=C/Nc1c(C)n(C)n(-c3ccccc3)c1=O)C(=O)C(O)=C2C(C)C displays GI50 of > 100 µM (inactive)

According to the records, this compound COC(=O)c1ccc(C)cc1CC1Cc2ccc(C)cc2C1=O (stereo unspecified) displays GI50 of 15 µM (inactive)

According to the records, this compound OCCN(C1=NCCN1)/[N+](=C/c1ccccc1O)[CH-]c1ccccc1O displays GI50 of > 100 µM (inactive)

According to the records, this compound CC(C)=NNc1snnc1C(N)=O displays GI50 of > 100 µM (inactive)

According to the records, this compound CCc1ccc2c(c1)CC1(C2)Cc2cc3c(cc2C1)C(=O)CC3 (stereo unspecified) displays GI50 of > 100 µM (inactive)

According to the records, this compound Oc1ccc2cc(Br)ccc2c1-c1c(O)ccc2ccc(Br)cc12 displays GI50 of 11.9 µM (inactive)

According to the records, this compound COC(=N)C1(C#N)NC(c2ccsc2)C(C#N)(C#N)NC1c1ccsc1 (stereo unspecified) displays GI50 of > 100 µM (inactive)

According to the records, this compound Cc1ccc(S(=O)(=O)N/N=C2\CCC3(O)CC2(C)CCC2C3CC2(C)C)cc1 (stereo unspecified) displays GI50 of 20 µM (inactive)

According to the records, this compound COC(=O)CCC(C)C1CCC2C3CCC4CC5CCC4(C)C3(O5)C(Br)C(Br)C12C (stereo unspecified) displays GI50 of > 100 µM (inactive)

According to the records, this compound N#Cc1c(N)c2c(c(-c3ccccc3)c1-c1ccccc1)C(=O)N(Nc1ccccc1)C2=O displays GI50 of 95.3 µM (inactive)
